Sourced from ChEMBL document CHEMBL1126879

Molecular target: Type-1 angiotensin II receptor B (Rattus norvegicus, UniProt P29089)
Sequence (P29089 whole entry): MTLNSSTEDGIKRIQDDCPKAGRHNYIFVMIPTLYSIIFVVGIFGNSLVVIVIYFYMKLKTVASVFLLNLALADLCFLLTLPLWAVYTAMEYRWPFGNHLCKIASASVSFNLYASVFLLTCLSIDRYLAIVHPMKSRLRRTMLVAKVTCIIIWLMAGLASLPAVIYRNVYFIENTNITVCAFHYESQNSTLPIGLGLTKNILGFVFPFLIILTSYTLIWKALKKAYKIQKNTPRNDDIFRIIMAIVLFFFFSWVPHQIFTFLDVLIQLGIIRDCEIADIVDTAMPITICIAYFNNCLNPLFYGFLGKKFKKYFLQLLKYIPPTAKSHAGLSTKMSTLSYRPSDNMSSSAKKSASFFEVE
Test: Binding affinity for Angiotensin II receptor, type 1 measured by ability to displace [125I]- A II from its specific binding site in rat liver membrane
pIC50: −log10 of the molar value.
Lab note: compare pIC50 against 7. Equal or greater, write 1. Smaller, write -1.

Consider the following illustrative entries.
{"Molecule": "CCCCC1=NC2(CCOCC2)C(=O)N1Cc1ccc(-c2ccccc2C(=O)O)cc1", "Class": 1}
{"Molecule": "CCCCC1=NC2(CCCC2)C(=O)N1Cc1ccc(-c2ccccc2-c2nnn[nH]2)cc1", "Class": 1}
{"Molecule": "CCCCC1=NC2(CCCC2)C(=O)N1Cc1ccc(-c2ccccc2C(=O)OC)cc1", "Class": -1}

Check the entry CCCCC1=NC(c2ccccc2)(c2ccccc2)C(=O)N1Cc1ccc(-c2ccccc2C(=O)O)cc1 : does pIC50 equal or exceed 7?
-1

For this molecule, is measured pIC50 7 or higher? CNCC(=O)N[C@@H](CCCNC(=N)N)C(=O)N[C@H](C(=O)N[C@@H](Cc1ccc(O)cc1)C(=O)N[C@H](C(=O)N[C@@H](Cc1cnc[nH]1)C(=O)N1CCC[C@H]1C(=O)N[C@@H](C)C(=O)O)C(C)C)C(C)C
1

Is pIC50 at least 7? Consider O=C(O)c1ccccc1-c1ccc(CN2C(=O)C3(CCCC3)N=C2Cc2ccccc2)cc1
-1

Reported pIC50 at or above 7? CCCCC1=NC2(CCCC2)C(=O)N1Cc1ccc(-c2ccccc2C#N)cc1
-1

Would you say CCCCC1=NC2(CCCCCCCCCC2)C(=O)N1Cc1ccc(-c2ccccc2C(=O)O)cc1 shows pIC50 at minimum 7?
-1

Record CCCCC1=NC2(Cc3ccccc3C2)C(=O)N1Cc1ccc(-c2ccccc2C(=O)O)cc1 ; criterion: pIC50 no lower than 7. Met?
1

pIC50 >= 7 for CCCCC1=NC2(CCN(C(=O)C(N)CC(=O)O)CC2)C(=O)N1Cc1ccc(-c2ccccc2C(=O)O)cc1 (stereo not given) ?
-1

Determine whether this molecule has pIC50 no lower than 7: CCCCC1=NC2(CCN(C(C)=O)CC2)C(=O)N1Cc1ccc(-c2ccccc2C(=O)O)cc1
1

Please indicate if the recorded pIC50 for CCCCC1=NC2(CCC2)C(=O)N1Cc1ccc(-c2ccccc2C(=O)O)cc1 meets or exceeds 7.
1
